Biological target: T1, monkey LAG-3 (full length, on the cell surface) (monkey, UniProt P18627 24-525 (human entry))
T1 construct: also called HEK293-cLAG-3; monkey LAG-3 protein on the cell surface
T1 chain: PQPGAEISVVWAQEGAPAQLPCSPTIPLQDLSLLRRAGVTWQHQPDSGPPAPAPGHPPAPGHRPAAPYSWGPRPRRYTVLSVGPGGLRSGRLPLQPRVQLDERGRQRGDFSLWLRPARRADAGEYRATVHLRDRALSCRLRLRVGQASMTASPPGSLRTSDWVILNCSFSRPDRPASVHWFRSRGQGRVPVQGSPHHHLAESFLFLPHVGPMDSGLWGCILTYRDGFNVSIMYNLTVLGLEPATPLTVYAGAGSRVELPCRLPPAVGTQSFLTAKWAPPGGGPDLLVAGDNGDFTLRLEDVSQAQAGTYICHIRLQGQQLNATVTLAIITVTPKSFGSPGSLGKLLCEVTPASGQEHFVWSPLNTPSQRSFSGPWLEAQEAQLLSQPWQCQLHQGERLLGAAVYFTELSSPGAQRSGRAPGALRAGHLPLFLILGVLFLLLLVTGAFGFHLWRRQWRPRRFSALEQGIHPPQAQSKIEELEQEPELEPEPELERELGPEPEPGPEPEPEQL
Test: FACS, HEK293-cLAG-3; 8.000 nM
The label depends only on Mean fluorescence intensity: Condition met if it is at least 50 MFI, Condition not met if it is smaller.

Binder | Category label
405B8H3 (mouse antibody purified from hybridoma) (antibody, V domains shown, also called mAb103-405B8H3; 405B81-13) VH: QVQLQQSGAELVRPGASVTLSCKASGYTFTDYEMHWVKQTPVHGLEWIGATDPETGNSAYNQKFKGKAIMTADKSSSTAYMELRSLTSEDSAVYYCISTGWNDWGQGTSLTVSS VL: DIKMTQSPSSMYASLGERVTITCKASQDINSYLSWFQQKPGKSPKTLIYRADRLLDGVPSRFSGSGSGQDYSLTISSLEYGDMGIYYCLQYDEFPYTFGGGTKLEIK | Condition met
105F1E10 (mouse antibody purified from hybridoma) (antibody, V domains shown, also called mAb009-105F1E10) VH: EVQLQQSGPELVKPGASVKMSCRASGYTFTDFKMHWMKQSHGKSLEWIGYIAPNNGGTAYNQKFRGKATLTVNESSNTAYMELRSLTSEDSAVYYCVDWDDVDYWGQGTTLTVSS VL: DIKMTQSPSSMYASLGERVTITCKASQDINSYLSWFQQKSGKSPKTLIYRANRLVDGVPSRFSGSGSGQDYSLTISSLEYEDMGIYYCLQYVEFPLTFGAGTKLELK | Condition not met
409D4E10 (mouse antibody purified from hybridoma) (antibody, V domains shown, also called mAb112-409D4E10) VH: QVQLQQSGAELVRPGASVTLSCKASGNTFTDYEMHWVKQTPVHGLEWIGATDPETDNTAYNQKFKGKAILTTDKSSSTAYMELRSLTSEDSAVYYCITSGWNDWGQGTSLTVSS VL: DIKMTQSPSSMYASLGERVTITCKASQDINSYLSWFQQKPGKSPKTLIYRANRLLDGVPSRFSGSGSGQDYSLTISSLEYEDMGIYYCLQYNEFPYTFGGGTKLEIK | Condition met
409B11E12 (mouse antibody purified from hybridoma) (antibody, V domains shown, also called mAb104-409B11E12) VH: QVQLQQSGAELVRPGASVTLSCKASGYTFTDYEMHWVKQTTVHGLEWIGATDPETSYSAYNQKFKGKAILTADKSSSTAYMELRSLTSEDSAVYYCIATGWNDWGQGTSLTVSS VL: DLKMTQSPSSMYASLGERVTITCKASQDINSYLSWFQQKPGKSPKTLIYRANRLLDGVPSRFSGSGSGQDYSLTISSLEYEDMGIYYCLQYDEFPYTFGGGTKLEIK | Condition met
556F6B8 (mouse antibody purified from hybridoma) (antibody, V domains shown, also called mAb123-556F6B8) VH: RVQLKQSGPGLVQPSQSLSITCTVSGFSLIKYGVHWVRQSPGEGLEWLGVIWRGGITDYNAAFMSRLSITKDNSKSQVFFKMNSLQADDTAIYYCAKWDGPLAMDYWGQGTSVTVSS VL: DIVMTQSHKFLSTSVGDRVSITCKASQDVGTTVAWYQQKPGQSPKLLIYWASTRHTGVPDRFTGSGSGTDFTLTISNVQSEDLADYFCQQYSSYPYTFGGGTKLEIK | Condition not met
